Every entry's value here was drawn from the RNAGym collection of RNA variant scans (doi:10.1073/pnas.2313332121).

B1: TPR t1 (parent)
chain: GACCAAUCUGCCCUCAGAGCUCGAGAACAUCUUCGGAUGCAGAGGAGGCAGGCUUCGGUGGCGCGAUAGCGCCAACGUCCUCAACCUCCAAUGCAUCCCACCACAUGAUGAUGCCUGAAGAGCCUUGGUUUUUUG

- Variants of: B1
- experiment summary: polymerase ribozyme fitness, log enrichment relative to wild type (log ratio); higher = more active; in vitro selection for triplet polymerase activity
We begin with a simple list: items and their reported polymerase ribozyme fitness (log ratio).
Please give only the number in your answer, with no unit.

Known results for variants:
[
  {
    "sequence data": "GACCAAUCUGCCCUCAGAGCUCGAGAACAUCUUCAGAUGCAGAGGAGGCAGGCUUCGGUGGCGCGAUAGCGCCAACGUCCUCAACCUCCAAUGCAUCCCACCGCAUGAUGAUGCCUGAAGAGCCUUGGUUUUUUG [G35A A103G]",
    "polymerase ribozyme fitness (log ratio)": -6.59
  },
  {
    "sequence data": "GACCAAUCUGCCCUCAGAGCUCGAGAACAUCUUCGGAUGCAGAGGAGGCAGGCUUCGGUCGCGCGAUAGCGCCAACGUCCUCAACCUCCAAUGCAUCCCACCUCAUGAUGAUGCCUGAAGAGCCUUGGUUUUUUG [G60C A103U]",
    "polymerase ribozyme fitness (log ratio)": -5.01
  },
  {
    "sequence data": "GACCAAUCUGCCCUCAGAGCUCGAGAACAUCUUCGGAUGCAGAGGAGGCCGGCUUCGGUGGCGCGAUAGCGCCAACGUCCUCAACCUCCAAUGCAUCCCACCACAUGAUGAUUCCUGAAGAGCCUUGGUUUUUUG [A50C G113U]",
    "polymerase ribozyme fitness (log ratio)": -3.73
  },
  {
    "sequence data": "GACCAAUCUGUCCUCAGAGCUCGAGAACAUCUUCGGAUGCAGAGAAGGCAGGCUUCGGUGGCGCGAUAGCGCCAACGACCUCAACAUCCAAUGCAUCCCACCACAAGAUGAUGCCUGAAGAGCCAUGGUUUUUUG [C11U G45A U78A C86A U106A U125A]",
    "polymerase ribozyme fitness (log ratio)": -6.24
  },
  {
    "sequence data": "GACCAAGCUGCCCUCAGAGCUCGAGAACAUCUUCGGAUGCAGAGGAGGCAGGCUUCGGUGGCGCUAUAGCGCCAACGUCCUCAACCUCCAAUGCAUCCCACCACAUGAUGAUGCCUGAAAAGCCUUGGUUUUUUG [U7G G65U G120A]",
    "polymerase ribozyme fitness (log ratio)": -4.13
  }
]

GET /values?readout=polymerase ribozyme fitness (log ratio)&item= GACCAAUCUGCCCUCAGAGCUCGAGAACAUCUUCGGAUGCAGAGGAGGCAGGCUUCGCUGGCGCGAUAGCGCCAACGUCCUCAACCUCCAAUGCAUCCCAGCACAUGAUGAUGACUGAAGAGCCUUGGUUUUUUG [G58C C101G C114A]
-3.77

Cool, now GACCAAUCUGCCCUCAGAGCUCGAGAACAUCUUCGGAUGCAGAGGAGGCAGGCUUCGGUGGCGCGAUAGCGCCAACGUCCUCAACCUCCAAUGCAUCCCACCACAUGCUGAUGCCUGAAGAGCGUUGGUUUUUUG [A108C C124G]
-4.87
